Exercise: state measured inhibition for each of the compounds provided.
Procedure Summary: growth inhibition, single agents and combos, LFS_MB_1R, cell-based, cisplatin or BGB combos, synergistic combos for chromothripsis tumors (AID 1671452);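 further: cells exposed for 96 hours before readout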
Particulars: LFS_MB_1R medulloblastoma cells, at 0.5 µM, stronger effect = higher value
The response must be a number in % with no trailing unit.

Query string: Find the measured inhibition of CC(C)C(=O)SCCCCCCC(=O)Nc1nc(-c2ccccc2)cs1 and report it.
Result string: -22

Query string: Supply measured inhibition of C[C@H](NC(=O)c1ccccc1N=Cc1c(O)ccc2ccccc12)c1ccccc1 in your reply.
Result string: -6.38

Query string: # return recorded inhibition for entry CC(Oc1cc(-c2cnn(C3CCNCC3)c2)cnc1N)c1c(Cl)ccc(F)c1Cl (stereo not drawn)
Result string: -9.48

Query string: Fill in inhibition for record C[n+]1ccc(-c2c3nc(c(-c4cc[n+](C)cc4)c4ccc([nH]4)c(-c4cc[n+](C)cc4)c4nc(c(-c5cc[n+](C)cc5)c5ccc2[nH]5)C=C4)C=C3)cc1
Result string: -33.2

Query string: Report measured inhibition; entry is C=C(NC(=O)C(=C)NC(=O)c1csc(C2=NC3c4csc(n4)C4NC(=O)c5csc(n5)C(C(C)(O)C(C)O)NC(=O)C5CSC(=N5)/C(=C/C)NC(=O)C(C(C)O)NC(=O)c5csc(n5)C3(CC2)NC(=O)C(C)NC(=O)C(=C)NC(=O)C(C)NC(=O)C(C(C)CC)NC2C=Cc3c(C(C)O)cc(nc3C2O)C(=O)OC4C)n1)C(N)=O (stereo not drawn)
Result string: -38.7

Query string: # return recorded inhibition for input CC1CN(c2c(F)c(N)c3c(=O)c(C(=O)O)cn(C4CC4)c3c2F)CC(C)N1 (stereo not drawn)
Result string: -11.6

Query string: Determine its reported inhibition: COc1ccc(-c2nc(-c3cc(C(F)(F)F)cc(C(F)(F)F)c3)n(Cc3ccc(C(N)=O)cc3)c2-c2ccc(OC)cc2)cc1
Result string: -33.2

Query string: Item Cc1cn(C2CC(O)C(COP(=O)(O)OP(=O)(O)OP(=O)(O)O)O2)c(=O)[nH]c1=O (stereo not drawn) : provide inhibition
Result string: 6.88

---

Procedure Summary: drug combination growth inhibition, ovarian cancer – cell-based, oncology-focused library, rucaparib conditional, profiling panel (AID 1508598)
Particulars: patient-derived ovarian cancer cells, CellTiter-Glo viability, 144 h; at 0.000305 µM; OCI-C5x cells; without rucaparib; stronger effect = lower value
Calls of active or inactive are those of the source.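 Rule for the calls: active = normalized viability below 100% at a tested concentration; inactive = the rest.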
What viability was measured for each of the following?

Query string: Find the measured viability of C[C@H]1C[C@H]2[C@@H]3CCC4=CC(=O)C=C[C@]4(C)[C@@H]3C(=O)C[C@]2(C)[C@]1(O)C(=O)CO and report it.
Result string: 123% (inactive)

Query string: Specify viability for CC(C)(C)C(=O)Nc1ccc2c(c1)C(=O)C(=O)c1ccccc1-2 and stop.
Result string: 109% (inactive)

Query string: Identify measured viability associated with Cc1cc(C)c(S(=O)(=O)n2cc(C)cc2C)c(C)c1
Result string: 106% (inactive)

Query string: Assign viability to the following record: O=C(O)c1cc(I)ccc1NC(=O)[C@H](Cc1ccccc1)NCc1ccccc1
Result string: 116% (inactive)

Query string: Look up and state reported viability for CCCCCOC(=O)Nc1nc(=O)n([C@@H]2O[C@H](C)[C@@H](O)C2O)cc1F (some centres not stated)
Result string: 111% (inactive)

Query string: Supply recorded viability for CC(=O)O[C@@]1(C(C)=O)CC[C@H]2[C@@H]3C=C(C)C4=CC(=O)CC[C@]4(C)[C@@H]3CC[C@@]21C here.
Result string: 104% (inactive)

Query string: Provide one value: measured viability of CO[C@H]1C[C@@H]2CC[C@@H](C)[C@@](O)(O2)C(=O)C(=O)N2CCCC[C@H]2C(=O)O[C@H]([C@H](C)C[C@@H]2CC[C@@H](O)[C@H](OC)C2)CC(=O)[C@H](C)/C=C(\C)[C@@H](O)[C@H](OC)C(=O)[C@H](C)C[C@H](C)/C=C/C=C/C=C/1C
Result string: 111% (inactive)

---

Procedure Summary: viability loss with induced miR-34 in A549 – imaging, A549 dox-inducible miR-34, nuclei and caspase counts, primary screen (AID 1347080)
Particulars: A549 miR-34 inducible, Hoechst nuclei count, 48 h; measured here: total cells without miR-34 induction
Exercise: state measured cell count for each of the compounds provided.
Could you keep your reply to the number by itself?

Query string: Item CCn1cnc(NC(=O)N(C)Cc2ccc(OC)cc2)n1 : provide cell count
Result string: 9910

Query string: Give cell count for O=C(Nc1cccc(-c2nn[nH]n2)c1)c1cccc(F)c1
Result string: 9450

Query string: State, in one line, measured cell count of CC(C)(CO)C(O)C(=O)NCCC(=O)O (stereo unspecified)
Result string: 9770

Query string: Using the record for CC(C)[N+]1(C)[C@@H]2CC[C@H]1CC(OC(=O)C(CO)c1ccccc1)C2 (stereo partly specified) , state its measured cell count.
Result string: 11500

Query string: Quick one: give measured cell count for CCCn1c(=O)c2[nH]c(-c3ccc(S(=O)(=O)O)cc3)nc2n(CCC)c1=O
Result string: 10400

Query string: Find the measured cell count of O=C(NCCOc1cccnc1)c1ccc2ncsc2c1 and report it.
Result string: 9210

Query string: Read the entry O=C(c1ccc(C=Cc2n[nH]c3ccccc23)cc1)N1CCNCC1 and write its reported cell count.
Result string: 2750

Query string: Determine its reported cell count: CC(=CC(=O)OCCCCCCCCC(=O)O)CC1OC[C@H](CC2O[C@H]2C(C)C(C)O)C(O)C1O (stereo partly specified)
Result string: 8800

Query string: Determine its reported cell count: CNC(=O)[C@H]1O[C@@H](n2cnc3c(NCc4ccc(N)cc4)ncnc32)C(O)[C@H]1O (stereo partly specified)
Result string: 9680

Query string: Read the entry Cc1ccc(Cn2nccc2NC(=O)Cn2cc(-c3ccc(F)cc3)cn2)o1 and write its reported cell count.
Result string: 9310

Query string: Please list cell count recorded for the compound Cn1c(=O)c2[nH]c(-c3ccccc3)nc2n(C)c1=O
Result string: 9510

---

What inhibition was measured for each of the following?
Procedure Summary: UWB1.289_BRCA1 ovarian cancer growth, cell-based, BGB or cisplatin combinations (AID 1671459)
Particulars: UWB1.289 BRCA1 ovarian carcinoma, drug combinations, BGB combination, concentration series, at 5 µM, stronger effect = higher value
The response must be a number in % with no trailing unit.

Query string: Item CC(Oc1cc(-c2cnn(C3CCNCC3)c2)cnc1N)c1c(Cl)ccc(F)c1Cl (stereo not given) : provide inhibition
Result string: 53.7

Query string: Give recorded inhibition. C=C(NC(=O)C(=C)NC(=O)c1csc(C2=NC3c4csc(n4)C4NC(=O)c5csc(n5)C(C(C)(O)C(C)O)NC(=O)C5CSC(=N5)/C(=C/C)NC(=O)C(C(C)O)NC(=O)c5csc(n5)C3(CC2)NC(=O)C(C)NC(=O)C(=C)NC(=O)C(C)NC(=O)C(C(C)CC)NC2C=Cc3c(C(C)O)cc(nc3C2O)C(=O)OC4C)n1)C(N)=O (stereo not given)
Result string: 97.5

Query string: Give the value of inhibition reported for the following: Nc1ncn(C2OC(CO)C(O)C2O)c(=O)n1 (stereo not given)
Result string: 63.4

Query string: Please supply the value of reported inhibition for the item C[C@@H]1COCCN1c1cc(C2(S(C)(=O)=O)CC2)nc(-c2cccc3[nH]ccc23)n1
Result string: 93.1

Query string: State, in one line, measured inhibition of COc1ccccc1S(=O)(=O)Nc1ccc2c(c1)CN(C)C(=O)N2
Result string: 37.7

---

Procedure Summary: chitosan synthesis blockers in C. neoformans – flow cytometry, Cibacron Brilliant Red staining (AID 1347148);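 further: compound exposure lasted three days at 37 degrees C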
Particulars: Cryptococcus neoformans chitosan, stronger effect = lower value; at 10 µM unless noted
Active and inactive are the calls of the source. No rule for the calls is given here.
Quantity Measured: fold fluorescence

Query string: In one line, give reported fold fluorescence of the entry CCCCC(C)(C)[C@@H](O)/C=C/[C@H]1[C@H](C/C=C\CCCC(=O)O)C(=O)C[C@@H]1O .
Result string: 4.79 (inactive)

Query string: Tell me fold fluorescence reported for COCCCCCCCCCCCC(=O)O
Result string: 7.84 (inactive)

Query string: Return reported fold fluorescence. Input compound: O[C@H]1C=C2CCN3Cc4cc5c(cc4C(C23)[C@@H]1O)OCO5 (stereo partly drawn)
Result string: 10.6 [at 174 µM] (inactive)

Query string: Give the reported value of fold fluorescence for this record: C[C@H]([C@H](C)N1CC(=O)NC(=O)C1)N1CC(=O)NC(=O)C1
Result string: 4.39 [at 177.1 µM] (inactive)

Query string: Provide only the value of recorded fold fluorescence for C[S@](=O)c1ccc(-c2nc(-c3ccc(F)cc3)c(-c3ccncc3)[nH]2)cc1
Result string: 8.78 [at 132.5 µM] (inactive)

Query string: Provide one value: measured fold fluorescence of O=C(O)c1ccc(-c2c3nc(c(-c4ccc(C(=O)O)cc4)c4ccc([n-]4)c(-c4ccc(C(=O)O)cc4)c4nc(c(-c5ccc(C(=O)O)cc5)c5ccc2[n-]5)C=C4)C=C3)cc1.[Mn+3]
Result string: 4.93 [at 57 µM] (inactive)

Query string: Input CCCCCCCCCCCCCCC[C@H](O)[C@H](N)CO , output reported fold fluorescence.
Result string: 8.12 (inactive)

Query string: Specify reported fold fluorescence for the compound shown: COC(=O)C1=C(C)NC(C)=C(C(=O)OCCSc2ccccc2)[C@H]1C
Result string: 8.74 [at 138.3 µM] (inactive)

Query string: Using the record for CC[C@@]1([C@@H]2O[C@@H]([C@H]3O[C@@](O)(CO)[C@H](C)C[C@@H]3C)C[C@@H]2C)CC[C@H]([C@]2(C)CCC3(C[C@H](O)[C@@H](C)[C@@H]([C@@H](C)[C@@H](OC)[C@H](C)C(=O)O)O3)O2)O1 (stereo partly drawn) , state its measured fold fluorescence.
Result string: 4.7 [at 72.2 µM] (inactive)

Query string: For CN=C(NC#N)Nc1ccc(C2=NNC(=O)C[C@@H]2C)cc1 , write its fold fluorescence.
Result string: 7.2 [at 175.9 µM] (inactive)

Query string: Give reported fold fluorescence value for CC(=O)[C@@H]1[C@@H](C#N)C[C@@H]2[C@H]3CC=C4C[C@H](O)CC[C@@]4(C)[C@@H]3CC[C@]21C
Result string: 3.64 [at 146.4 µM] (inactive)

Query string: Provide measured fold fluorescence value, entry: c1ccc(CN(CCN(Cc2ccccn2)Cc2ccccn2)Cc2ccccn2)nc1
Result string: 9.33 [at 117.8 µM] (inactive)

Query string: Complete the entry with fold fluorescence for COC(=O)[C@@H](N)CSC/C=C(\C)CC/C=C(\C)CCC=C(C)C
Result string: 4.53 (inactive)

Query string: Output fold fluorescence of CC/C=C\C/C=C\C/C=C\CCCCCCCCCCCC(=O)O
Result string: 4.89 (inactive)

Query string: Could you please provide reported fold fluorescence for CCCCC[C@@H](O)/C=C/[C@H]1[C@@H]2C/C(=C/CCCC(=O)O)C[C@@H]2C[C@@H]1O ? Thanks!
Result string: 4.8 (inactive)

Query string: Tell me its fold fluorescence given N#C/C(=C/c1ccc(O)c(O)c1)C(=O)OC/C=C/c1ccccc1 as the entry.
Result string: 10.2 [at 155.6 µM] (inactive)

Query string: Check the records and state fold fluorescence for COc1cc2c3cc1Oc1c(OC)c(OC)cc4c1[C@H](Cc1ccc(OC(=O)c5ccc([N+](=O)[O-])cc5)c(c1)Oc1ccc(cc1)C[C@H]3N(C)CC2)N(C)CC4
Result string: 5.83 [at 66 µM] (inactive)

Query string: Provide measured fold fluorescence value, entry: CC(=O)N[C@@H](CSC/C=C(\C)CCC=C(C)C)C(=O)O
Result string: 5.25 (inactive)
